# Target Desc: Inositol monophosphatase 1 (Bos taurus)
# Sequence (P20456 whole entry): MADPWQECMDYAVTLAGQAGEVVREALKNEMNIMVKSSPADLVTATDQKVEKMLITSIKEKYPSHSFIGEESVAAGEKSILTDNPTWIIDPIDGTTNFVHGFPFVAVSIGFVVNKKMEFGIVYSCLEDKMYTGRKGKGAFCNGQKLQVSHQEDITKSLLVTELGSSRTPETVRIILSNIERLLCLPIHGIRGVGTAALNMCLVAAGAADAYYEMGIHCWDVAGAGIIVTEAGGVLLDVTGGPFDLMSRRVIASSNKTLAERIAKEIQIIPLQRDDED
# Assay Text: Tested for the inhibitory activity against bovine inositol monophosphatase by measuring concentration inhibiting the production of [14C]inositol from racemic inositol monophosphate (1) containing [14C]-1
Experimental Readout: IC50 (mM)
Give bare numbers, in mM.

O=P(O)(O)O[C@H]1CC[C@H](CO)[C@H]1O 2.1
Nc1ncnc2c1ncn2[C@@H]1O[C@H](CO)[C@@H](O)[C@H]1OP(=O)(O)O 1.3
O=P(O)(O)O[C@@H]1CO[C@@H](CO)[C@@H]1O 1.8
O=P(O)(O)O[C@H]1CC[C@@H](CO)[C@H]1O 0.31
O=P(O)(O)O[C@H]1CCC[C@H]1O 5
O=P(O)(O)[C@H]1CC[C@H](O)C[C@H]1O 0.007

Hi, could you look up IC50 for each item in my list?
1. O=P(O)(O)O[C@H]1CO[C@H](CO)[C@H]1O
2. O=P(O)(O)O[C@H]1COC[C@H]1O

a:
1: 2.9; 2: 3.6

Data provenance: ChEMBL document CHEMBL1127105
